method_summary: Pharmacokinetics on single dose in rats (iv and po)
Assay type: in vivo, male SD rats
experimental_setup: male, rat, plasma; SD rats, po 10 mg/kg; read-out: Cmax
measure_name: Cmax (ng/mL)
Give bare numbers, in ng/mL.

Data point: C=CCn1c(=O)c2cnc(Nc3ccc(N4CCN(C)CC4)cc3)nc2n1-c1cccc(C(C)(C)O)n1 [AZD1775, reference compound] ; Cmax = 188

====

target_system: hERG potassium channel (Homo sapiens (Human), UniProt Q12809)
Sequence (Q12809 whole entry): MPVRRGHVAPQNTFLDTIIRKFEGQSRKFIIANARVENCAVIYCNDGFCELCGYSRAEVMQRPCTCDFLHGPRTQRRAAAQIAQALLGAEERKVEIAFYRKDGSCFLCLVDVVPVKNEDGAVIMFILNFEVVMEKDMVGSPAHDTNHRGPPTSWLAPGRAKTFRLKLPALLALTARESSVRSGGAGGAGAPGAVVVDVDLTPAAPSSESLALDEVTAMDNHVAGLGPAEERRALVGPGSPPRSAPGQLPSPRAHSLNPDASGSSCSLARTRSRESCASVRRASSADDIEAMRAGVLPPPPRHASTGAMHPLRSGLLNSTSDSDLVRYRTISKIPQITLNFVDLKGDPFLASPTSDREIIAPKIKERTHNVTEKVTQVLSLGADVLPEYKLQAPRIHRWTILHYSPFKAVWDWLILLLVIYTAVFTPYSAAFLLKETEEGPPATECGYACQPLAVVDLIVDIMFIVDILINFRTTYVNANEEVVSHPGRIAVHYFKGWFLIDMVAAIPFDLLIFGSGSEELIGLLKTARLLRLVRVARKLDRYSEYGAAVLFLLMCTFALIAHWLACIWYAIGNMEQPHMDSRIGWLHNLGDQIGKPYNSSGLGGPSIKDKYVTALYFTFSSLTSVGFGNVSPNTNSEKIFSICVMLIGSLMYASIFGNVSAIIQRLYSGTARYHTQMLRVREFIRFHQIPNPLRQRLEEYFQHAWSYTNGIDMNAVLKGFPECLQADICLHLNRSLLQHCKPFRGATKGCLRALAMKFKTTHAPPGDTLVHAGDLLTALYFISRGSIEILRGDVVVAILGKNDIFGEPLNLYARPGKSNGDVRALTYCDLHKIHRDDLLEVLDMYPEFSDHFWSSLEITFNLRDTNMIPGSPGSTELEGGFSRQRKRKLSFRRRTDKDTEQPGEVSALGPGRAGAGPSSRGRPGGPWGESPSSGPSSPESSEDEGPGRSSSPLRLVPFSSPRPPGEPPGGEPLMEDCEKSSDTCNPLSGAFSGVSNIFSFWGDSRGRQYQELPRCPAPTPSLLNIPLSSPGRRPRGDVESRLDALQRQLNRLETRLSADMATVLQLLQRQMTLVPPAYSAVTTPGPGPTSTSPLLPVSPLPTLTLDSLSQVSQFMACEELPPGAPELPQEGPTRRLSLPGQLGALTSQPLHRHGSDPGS
method_summary: hERG potassium channel inhibition, patch clamp in CHO hERG cells
experimental_setup: test concentration 5 μM
Label rule, in plain words: hERG Inhibition of 20% and up is condition met, under 20% is condition not met.

These solved cases illustrate the format of a correct answer.
{"compound": "C=CCn1c(=O)c2cnc(Nc3ccc(N4CCN(C)CC4)cc3)nc2n1-c1ccc2c(n1)[C@@](O)(CC)CC2 [ZnC3, reference compound]", "category": "condition not met"}
{"compound": "[2H][C@]1(O)c2nc(-n3c4nc(Nc5ccc(N6CC7CC(C6)N7C(C)C)cc5)ncc4c(=O)n3CC=C)ccc2CCC12CC2 [Compound 39b]", "category": "condition met"}
{"compound": "C=CCn1c(=O)c2cnc(Nc3ccc(N4CCC5(CCN(C)CC5)CC4)cc3)nc2n1-c1ccc2c(n1)[C@](C)(O)C1(CC2)CC1 (racemic) [Compound 44]", "category": "condition met"}
{"compound": "C=CCn1c(=O)c2cnc(Nc3ccc(N4CCN(C)CC4)cc3)nc2n1-c1ccc2c(n1)[C@H](O)C1(CC2)CC1 (single isomer, unassigned) [Compound 4b]", "category": "condition met"}
{"compound": "[2H][C@]1(O)c2nc(-n3c4nc(Nc5ccc(N6CCC7(CCN(C)CC7)CC6)cc5)ncc4c(=O)n3CC=C)ccc2CCC12CC2 [Compound 37b]", "category": "condition not met"}

Task: Item C=CCn1c(=O)c2cnc(Nc3ccc(N4CC5CC(C4)N5C)cc3)nc2n1-c1ccc2c(n1)C(C)(O)C1(CC2)CC1 (stereo not shown) [Compound 7] with hERG Inhibition of 20% or above?
Result: condition met

Task: Item C=CCn1c(=O)c2cnc(Nc3ccc(N4CCC(N(C)C)CC4)c(C)c3)nc2n1-c1ccc2c(n1)[C@H](O)C1(CC2)CC1 (single isomer, unassigned) [Compound 48b] with hERG Inhibition of 20% or above?
Result: condition met

====

method_summary: Plasma protein binding (equilibrium dialysis), mouse
experimental_setup: mouse, plasma
measure_name: fraction unbound at 5 h, 1 µM
Answers are plain numbers.

Data point: C=CCn1c(=O)c2cnc(Nc3ccc(N4CCN(C)CC4)cc3)nc2n1-c1cccc(C(C)(C)O)n1 [AZD1775, reference compound] ; fraction unbound at 5 h, 1 µM = 0.087

====

System: Caco-2 cells
method_summary: Membrane permeability in Caco-2 model
Assay type: in vitro ADME
experimental_setup: Caco2, 10 μM, 90 min
Record form. Attribute: Papp B to A. Fill in for each entry.

Illustrative cases are given below, each with its answer.
{"compound": "C=CCn1c(=O)c2cnc(Nc3ccc(N4CCN(C)CC4)cc3)nc2n1-c1ccc2c(n1)[C@@](O)(CC)CC2 [ZnC3, reference compound]", "Papp B to A": "15.01 10^−6 cm/s"}
{"compound": "[2H][C@]1(O)c2nc(-n3c4nc(Nc5ccc(N6CCC7(CCN(C)CC7)CC6)cc5)ncc4c(=O)n3CC=C)ccc2CCC12CC2 [Compound 37b]", "Papp B to A": "9.69 10^−6 cm/s"}
{"compound": "C=CCn1c(=O)c2cnc(Nc3ccc(N4CCN(C)CC4)cc3)nc2n1-c1ccc2c(n1)[C@H](O)C1(CC2)CC1 (single isomer, unassigned)", "Papp B to A": "13.19 10^−6 cm/s"}

With those in mind, consider the next compound.
Data point: [2H][C@]1(O)c2nc(-n3c4nc(Nc5ccc(N6CC7CC(C6)N7C(C)C)cc5)ncc4c(=O)n3CC=C)ccc2CCC12CC2 [Compound 39b] ; Papp B to A = 13.62 10^−6 cm/s

meta.source: patent US20250304587A1
